assay: Plasma levels of 9-deoxo-16,16-dimethyl-9-methylene-PGE2 by radioimmunoassay after insertion of a suppository; format: in vivo, Rhesus monkeys (Macaca mulatta); details: rhesus monkey, plasma, 30 mg, plasma; Monkey #11; 24 Hours; 30 mg Potassium Salt in H15 Plus 2% CSD Suppositories; read-out: Drug Levels
Structures can show the parent of a compound that is named as a salt.
endpoint-label: concentration at 24 h (ng/mL)
Report the figure in ng/mL without appending any unit label.

Query block: Which measured concentration at 24 h value corresponds to C=C1C[C@@H](O)[C@H](/C=C/[C@@H](O)C(C)(C)CCCC)[C@H]1C/C=C\CCCC(=O)O [Potassium Salt] ?
Result block: 23.4
